Origin of measurements: PubChem BioAssay (NCI)

# ASSAY NAME: NCI Yeast Anticancer Drug Screen. Data for the mlh1 rad18 strain (AID 175)
# CONDITION DESCRIPTION: S. cerevisiae mlh1 rad18 strain growth inhibition; at 50.0 µM (retest, dose inferred, filed as 5.0); hits give high values
Compounds without any hit were thinned out: in the full panel of roughly 79,000, 15% have a hit.
Form field: growth inhibition (one value per entry).
Write down the numeric answer in % and omit the unit.

## Input Provide measured growth inhibition value, entry: `N#Cc1cccc2c1Sc1ccccc1N2`
## Output 7

## Input Specify measured growth inhibition for `Cc1cc(SCc2ccccc2)cc(C)[o+]1` .
## Output 96

## Input Consider the compound OC(Cc1ccc(Br)cc1)CN1CCC(c2ccccc2)CC1 (stereo not given) . State its measured growth inhibition.
## Output 88
